In what follows, each item is paired with its IC50 for UniProt C7C422.
Sequence (C7C422 29-270, looked up, species assumed): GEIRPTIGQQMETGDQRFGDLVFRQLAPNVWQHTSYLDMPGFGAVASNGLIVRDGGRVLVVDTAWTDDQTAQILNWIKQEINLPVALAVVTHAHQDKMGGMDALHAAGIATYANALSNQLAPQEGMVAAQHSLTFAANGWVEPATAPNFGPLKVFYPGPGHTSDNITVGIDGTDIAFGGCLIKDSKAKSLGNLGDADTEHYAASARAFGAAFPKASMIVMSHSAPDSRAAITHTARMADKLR
Output spec: scalar in nM, unitless text.

Here's what some known entries look like.
NS(=O)(=O)c1c(S(=O)(=O)N[C@@H]2CCNC2)ccc(N2CCc3ccncc32)c1-c1nnn[nH]1	0.3
NS(=O)(=O)c1c(S(=O)(=O)N[C@@H]2CCNC2)ccc(N2CCc3ncc(O)cc3C2)c1-c1nnn[nH]1	0.28

IN: Report the value of IC50 obtained on UniProt C7C422 for NS(=O)(=O)c1c(S(=O)(=O)N[C@@H]2CCNC2)ccc(N2CCCn3ccnc32)c1-c1nnn[nH]1 .
OUT: 0.77

---

This section presents compounds with their documented IC50 values.
- system: VIM-2 (Escherichia coli)
Output spec: scalar in nM, unitless text.

Here's what some known entries look like.
Cc1cc2c(c(C)n1)CCN2c1ccc(S(=O)(=O)N[C@@H]2CCNC2)c(S(N)(=O)=O)c1-c1nnn[nH]1	1.37
NCCNS(=O)(=O)c1ccc(N2CCCn3ccnc32)c(-c2nn[nH]n2)c1S(N)(=O)=O	2.17
NS(=O)(=O)c1c(S(=O)(=O)N[C@@H]2CCNC2)ccc(N2CCCn3ncnc32)c1-c1nnn[nH]1	1.09

IN: In one line, give reported IC50 of the entry NS(=O)(=O)c1c(S(=O)(=O)N[C@@H]2CCNC2)ccc(N2CCc3ccncc32)c1-c1nnn[nH]1 .
OUT: 0.72

IN: In one line, give reported IC50 of the entry NS(=O)(=O)c1c(S(=O)(=O)N[C@@H]2CCNC2)ccc(N2CCc3ncc(O)cc3C2)c1-c1nnn[nH]1 .
OUT: 0.74

IN: In one line, give reported IC50 of the entry NS(=O)(=O)c1c(S(=O)(=O)N[C@@H]2CCNC2)ccc(N2CCc3cccnc3C2)c1-c1nnn[nH]1 .
OUT: 39

IN: In one line, give reported IC50 of the entry CNC(=O)c1nsc2c1CCN(c1ccc(S(=O)(=O)N[C@@H]3CCNC3)c(S(N)(=O)=O)c1-c1nnn[nH]1)C2 .
OUT: 0.48
